The origin of these recorded values is patent US12060351B2.

- targetSystem: IRAK4 enzyme (Homo sapiens, UniProt Q9NWZ3)
- Construct: purchased Carna Biosciences, Chuo-ku, Kobe, Japan
- Sequence (Q9NWZ3 whole entry): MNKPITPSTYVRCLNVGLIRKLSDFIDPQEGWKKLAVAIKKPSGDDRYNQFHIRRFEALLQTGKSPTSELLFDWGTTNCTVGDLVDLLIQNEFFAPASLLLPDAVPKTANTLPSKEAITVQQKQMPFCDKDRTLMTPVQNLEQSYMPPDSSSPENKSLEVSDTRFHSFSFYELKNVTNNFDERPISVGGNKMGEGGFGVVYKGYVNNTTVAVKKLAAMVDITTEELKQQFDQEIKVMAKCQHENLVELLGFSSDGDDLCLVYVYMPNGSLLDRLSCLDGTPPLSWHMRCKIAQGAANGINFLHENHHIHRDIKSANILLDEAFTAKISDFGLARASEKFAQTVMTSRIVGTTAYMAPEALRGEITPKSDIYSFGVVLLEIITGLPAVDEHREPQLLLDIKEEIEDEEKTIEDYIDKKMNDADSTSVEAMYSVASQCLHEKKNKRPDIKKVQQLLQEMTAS
- assayProtocol: IRAK4 Biochemical Assay (TR-FRET, STK1 KinEASE)
- conditionDetails: 500 μM ATP, Table 2 second part (compounds 33-343), read-out: IC50 IRAK4-HTBS
Could you please report measured pIC50 for the items listed next?
Units for pIC50: none; it is -log10 of a concentration expressed in mol/L.

Request: Could you share which pIC50 value was measured for CC(C)Nc1cc(-c2ccc3cc(C#N)cnn23)ncc1-c1nnc(N2C[C@H]3CC[C@@H](C2)[C@@H]3N2CCOC2=O)s1 [Compound 301] ?
Result: 8.98

Request: Note, next up: CC(=O)N[C@H]1[C@@H]2C[C@H]1CN(c1nnc(-c3cnc(-c4ccc5cc(C#N)cnn45)cc3NC(C)C)s1)C2 [Example 45]
Result: 8.95

Request: Same for CC(C)Nc1cc(-c2ccc3cc(C#N)cnn23)ncc1-c1nnc(N2C[C@H]3CC[C@@H](C2)[C@@H]3NC(=O)[C@H]2C[C@](C)(O)C2)s1 [Example 92]
Result: 8.76

Request: Same question for COC(=O)N[C@@H]1[C@@H]2CC[C@H]1CN(c1nnc(-c3cnc(-c4ccc5cc(C#N)cnn45)cc3NC(C)C)s1)C2 [Example 59] please.
Result: 8.71

Request: Same thing, different compound: CNC(=O)N[C@H]1CC[C@H](c2nnc(-c3cnc(-c4ccc5cc(C#N)cnn45)cc3NC(C)C)s2)CC1 [Example 140]
Result: 9.08

Request: How about this compound: CC(=O)N[C@H]1[C@@H]2COC[C@H]1CN(c1nnc(-c3cnc(-c4ccc5cc(C#N)cnn45)cc3NC(C)C)s1)C2 [Example 182]
Result: 9.28

Request: How about CC(=O)N[C@@H]1C[C@H]2COC[C@@H](C1)N2c1nnc(-c2cnc(-c3ccc4cc(C#N)cnn34)cc2NC(C)C)s1 [Example 209] ?
Result: 9.05

Request: Please answer likewise for CC(=O)N[C@H]1CC[C@H](c2nnc(-c3cnc(-c4ccc5cc(C#N)cnn45)cc3N[C@H]3C[C@@](C)(O)C3)s2)CC1 [Compound 243]
Result: 9.26

Request: Lookup N#Cc1cnn2c(-c3cc(NC4COC4)c(-c4nnc([C@H]5CC[C@@H](NC(=O)C6CC6)CC5)s4)cn3)ccc2c1 [Example 203]
Result: 9.08

Request: Would you kindly repeat that for C[C@]1(O)C[C@@H](c2nnc(-c3cnc(-c4ccc5cc(C#N)cnn45)cc3NC3COC3)s2)C1 [Example 200] ?
Result: 9.20

Request: Entry CC(C)Nc1cc(-c2ccc3cc(C#N)cnn23)ncc1-c1nnc(N2C[C@H]3CC[C@@H](C2)[C@@H]3Nc2ncccn2)s1 [Compound 308] please
Result: 8.73

Request: Now this one: COC(=O)N1CCN(C(=O)N[C@@H]2[C@@H]3CC[C@H]2CN(c2nnc(-c4cnc(-c5ccc6cc(C#N)cnn56)cc4NC(C)C)s2)C3)CC1 [Example 105]
Result: 9.01

Request: Next compound: CC(C)Nc1cc(-c2ccc3cc(C#N)cnn23)ncc1-c1nnc(N2C[C@H]3CC[C@@H](C2)[C@@H]3NC(=O)C2(C)COC2)s1 [Example 94]
Result: 9.05

====

- targetSystem: IRAK4 enzyme (Homo sapiens, UniProt Q9NWZ3)
- Construct: purchased Carna Biosciences, Chuo-ku, Kobe, Japan
- assayProtocol: IRAK4 Biochemical Assay (TR-FRET, STK1 KinEASE)
- conditionDetails: 500 μM ATP, Table 2 second part (compounds 33-343), read-out: IC50 IRAK4-HTBS
Give measured IC50 for each item. Keep answers brief.
Numeric answer only, unit nM assumed.

Request: Look up IC50 for this compound: `CC(=O)N[C@]1(C)[C@@H]2CC[C@H]1CN(c1nnc(-c3cnc(-c4ccc5cc(C#N)cnn45)cc3NC(C)C)s1)C2`
Result: 1.52

Request: Moving on to the next compound: `CC(C)Nc1cc(-c2ccc3cc(C#N)cnn23)ncc1-c1nnc(N2C[C@H]3CC[C@@H](C2)[C@@]3(C)O)s1`
Result: 0.91

Request: And then `CC(=O)N[C@H]1C[C@@H](c2nnc(-c3cnc(-c4ccc5cc(C#N)cnn45)cc3NC(C)C)s2)C1` , what is it?
Result: 0.4

Request: Next entry: `CC(C)Nc1cc(-c2ccc3cc(C#N)cnn23)ncc1-c1nnc(N2C[C@H]3CC[C@@H](C2)[C@@H]3NC(=O)[C@H]2C[C@@](C)(O)C2)s1`
Result: 1.78
